# TARGET: 5-hydroxytryptamine receptor 1A (Rattus norvegicus)
# Sequence (P19327 whole entry): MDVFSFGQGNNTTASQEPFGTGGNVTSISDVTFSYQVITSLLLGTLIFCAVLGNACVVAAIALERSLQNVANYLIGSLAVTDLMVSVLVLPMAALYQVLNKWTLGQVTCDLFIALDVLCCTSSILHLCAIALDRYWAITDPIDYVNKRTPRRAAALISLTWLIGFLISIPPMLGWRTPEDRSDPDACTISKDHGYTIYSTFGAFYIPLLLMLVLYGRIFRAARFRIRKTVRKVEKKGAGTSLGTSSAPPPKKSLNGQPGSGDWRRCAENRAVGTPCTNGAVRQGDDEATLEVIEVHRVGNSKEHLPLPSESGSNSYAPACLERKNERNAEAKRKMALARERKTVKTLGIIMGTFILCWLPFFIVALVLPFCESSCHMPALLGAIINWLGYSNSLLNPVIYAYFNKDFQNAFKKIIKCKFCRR
pKi: −log10 of the molar value.
Could you please report measured pKi for the items listed next?

Below: 2 compounds and their reported pKi.
So what's the measured pKi for this one? "N=C(N)NC(=O)c1nc(Cl)c(N2CCCCCC2)nc1N"
< 5.00

Would you kindly repeat that for "N=C(N)NC(=O)c1nc(Cl)c(N)nc1N" ?
< 5.00

Turning to the following compound.
So what's the measured pKi for this one? "NC(=NCc1ccccc1)NC(=O)c1nc(Cl)c(N)nc1N"
5.72

###

Form: system (UniProt P34975), quantity (Ki), values below.
Sequence (P34975 whole entry): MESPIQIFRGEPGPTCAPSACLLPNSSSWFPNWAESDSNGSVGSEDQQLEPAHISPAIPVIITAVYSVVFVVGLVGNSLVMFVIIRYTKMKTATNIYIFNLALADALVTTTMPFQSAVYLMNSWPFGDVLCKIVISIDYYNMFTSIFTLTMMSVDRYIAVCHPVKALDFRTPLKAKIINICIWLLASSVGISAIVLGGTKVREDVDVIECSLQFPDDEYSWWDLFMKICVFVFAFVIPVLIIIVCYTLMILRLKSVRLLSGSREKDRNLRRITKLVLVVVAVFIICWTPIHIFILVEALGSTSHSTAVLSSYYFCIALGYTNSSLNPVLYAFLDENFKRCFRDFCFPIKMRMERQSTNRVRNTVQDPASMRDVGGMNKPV

So what's the measured Ki for this one? "NC(=NCc1ccccc1)NC(=O)c1nc(Cl)c(N)nc1N"
> 10 µM

Turning to the following compound.
So what's the measured Ki for this one? "N=C(N)NC(=O)c1nc(Cl)c(N)nc1N"
> 10 µM

###

# TARGET: Alpha-1A adrenergic receptor (Rattus norvegicus, UniProt P43140)
# Sequence (P43140 whole entry): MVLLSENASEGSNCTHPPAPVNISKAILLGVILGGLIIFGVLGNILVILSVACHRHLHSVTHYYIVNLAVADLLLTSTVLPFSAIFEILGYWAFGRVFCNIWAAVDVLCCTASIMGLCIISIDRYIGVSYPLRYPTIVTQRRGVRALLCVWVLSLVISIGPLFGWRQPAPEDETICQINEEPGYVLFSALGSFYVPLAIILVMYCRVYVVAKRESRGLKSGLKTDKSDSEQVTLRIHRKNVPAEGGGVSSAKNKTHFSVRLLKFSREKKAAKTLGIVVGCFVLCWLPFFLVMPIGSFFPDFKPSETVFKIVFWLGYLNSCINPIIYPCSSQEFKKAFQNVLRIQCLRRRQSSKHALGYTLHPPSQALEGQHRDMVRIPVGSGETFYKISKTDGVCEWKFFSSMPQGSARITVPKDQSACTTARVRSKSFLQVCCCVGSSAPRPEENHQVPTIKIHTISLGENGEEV
pKi: −log10 of the molar value.
OBSERVED_PROPERTY: pKi

So what's the measured pKi for this one? "N=C(N)NC(=O)c1nc(Cl)c(N)nc1N"
< 5.00

###

Form: system (Substance-P receptor (Rattus norvegicus)), quantity (pKi), values below.
pKi: −log10 of the molar value.

So what's the measured pKi for this one? "N=C(N)NC(=O)c1nc(Cl)c(N)nc1N"
< 5.00

Turning to the following molecule.
So what's the measured pKi for this one? NC(=NCc1ccccc1)NC(=O)c1nc(Cl)c(N)nc1N [NSC_108107]
< 5.00

###

Target chain: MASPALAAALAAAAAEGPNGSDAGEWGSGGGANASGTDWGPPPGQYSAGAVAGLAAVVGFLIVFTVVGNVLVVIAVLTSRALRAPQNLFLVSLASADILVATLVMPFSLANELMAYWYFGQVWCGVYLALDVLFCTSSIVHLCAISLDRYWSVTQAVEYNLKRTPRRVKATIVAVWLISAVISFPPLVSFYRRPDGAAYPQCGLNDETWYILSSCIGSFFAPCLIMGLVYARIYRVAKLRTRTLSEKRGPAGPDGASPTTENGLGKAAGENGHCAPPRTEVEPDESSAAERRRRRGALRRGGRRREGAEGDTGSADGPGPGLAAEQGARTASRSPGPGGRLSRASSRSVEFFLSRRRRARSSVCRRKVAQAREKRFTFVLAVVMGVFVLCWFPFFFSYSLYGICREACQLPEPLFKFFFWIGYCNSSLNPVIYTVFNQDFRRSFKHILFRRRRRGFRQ
OBSERVED_PROPERTY: pKi
Numbers only, as −log10 of the molar value.

So what's the measured pKi for this one? "NC(=NCc1ccccc1)NC(=O)c1nc(Cl)c(N)nc1N"
5.66

###

# TARGET: UniProtKB P10980
# Sequence (P10980 whole entry): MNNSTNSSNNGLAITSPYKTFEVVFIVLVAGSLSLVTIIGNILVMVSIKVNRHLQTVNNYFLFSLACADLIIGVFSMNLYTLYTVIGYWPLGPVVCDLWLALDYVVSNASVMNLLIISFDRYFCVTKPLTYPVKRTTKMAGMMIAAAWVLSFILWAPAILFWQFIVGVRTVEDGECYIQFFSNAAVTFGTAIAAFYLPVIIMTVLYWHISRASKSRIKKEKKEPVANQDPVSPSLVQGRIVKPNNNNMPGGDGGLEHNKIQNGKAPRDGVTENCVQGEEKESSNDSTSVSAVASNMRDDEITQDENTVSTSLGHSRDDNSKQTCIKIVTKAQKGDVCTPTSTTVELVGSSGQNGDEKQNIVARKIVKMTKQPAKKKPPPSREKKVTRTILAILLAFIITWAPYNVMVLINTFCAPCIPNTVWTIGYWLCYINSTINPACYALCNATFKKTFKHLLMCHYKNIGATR
OBSERVED_PROPERTY: pKi
One number for each entry, as −log10 of the molar value.

So what's the measured pKi for this one? NC(=NCc1ccccc1)NC(=O)c1nc(Cl)c(N)nc1N [NSC_108107]
5.24

###

# TARGET: 5-hydroxytryptamine receptor 2A (Rattus norvegicus)
# Sequence (P14842 whole entry): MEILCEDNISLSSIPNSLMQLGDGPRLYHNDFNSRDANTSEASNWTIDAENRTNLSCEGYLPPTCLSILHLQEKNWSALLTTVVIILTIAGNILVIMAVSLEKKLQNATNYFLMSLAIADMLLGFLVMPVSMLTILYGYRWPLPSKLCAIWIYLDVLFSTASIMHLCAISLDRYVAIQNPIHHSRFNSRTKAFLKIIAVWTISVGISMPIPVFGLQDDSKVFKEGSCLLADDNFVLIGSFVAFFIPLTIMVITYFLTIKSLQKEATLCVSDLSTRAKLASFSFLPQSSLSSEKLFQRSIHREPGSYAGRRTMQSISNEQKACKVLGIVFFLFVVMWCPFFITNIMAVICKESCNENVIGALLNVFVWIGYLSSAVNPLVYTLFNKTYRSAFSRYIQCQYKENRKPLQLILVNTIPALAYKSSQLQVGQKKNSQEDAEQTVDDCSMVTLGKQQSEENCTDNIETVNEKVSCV
OBSERVED_PROPERTY: pKi
One number for each entry, as −log10 of the molar value.

So what's the measured pKi for this one? "NC(=NCc1ccccc1)NC(=O)c1nc(Cl)c(N)nc1N"
5.85

###

# TARGET: UniProt P23979
# Sequence (P23979 as listed by the source): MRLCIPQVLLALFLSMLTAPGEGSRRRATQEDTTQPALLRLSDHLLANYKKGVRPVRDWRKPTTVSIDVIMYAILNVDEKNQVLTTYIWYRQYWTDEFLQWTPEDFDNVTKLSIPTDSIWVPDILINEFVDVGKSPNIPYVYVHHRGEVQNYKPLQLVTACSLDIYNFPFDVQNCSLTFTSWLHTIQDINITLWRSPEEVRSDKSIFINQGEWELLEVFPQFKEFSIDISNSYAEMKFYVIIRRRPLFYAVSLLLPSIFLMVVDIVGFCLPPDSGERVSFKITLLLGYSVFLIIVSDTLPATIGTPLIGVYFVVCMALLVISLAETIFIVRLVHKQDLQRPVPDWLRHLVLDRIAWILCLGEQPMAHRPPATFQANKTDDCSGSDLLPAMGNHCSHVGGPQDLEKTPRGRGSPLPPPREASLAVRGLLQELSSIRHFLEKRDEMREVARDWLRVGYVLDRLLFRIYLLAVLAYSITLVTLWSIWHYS
OBSERVED_PROPERTY: Ki (nM)
Numbers only, in nM.

So what's the measured Ki for this one? "NC(=NCc1ccccc1)NC(=O)c1nc(Cl)c(N)nc1N"
2200

###

# TARGET: Adenosine receptor A1 (Rattus norvegicus)
# Sequence (P25099 whole entry): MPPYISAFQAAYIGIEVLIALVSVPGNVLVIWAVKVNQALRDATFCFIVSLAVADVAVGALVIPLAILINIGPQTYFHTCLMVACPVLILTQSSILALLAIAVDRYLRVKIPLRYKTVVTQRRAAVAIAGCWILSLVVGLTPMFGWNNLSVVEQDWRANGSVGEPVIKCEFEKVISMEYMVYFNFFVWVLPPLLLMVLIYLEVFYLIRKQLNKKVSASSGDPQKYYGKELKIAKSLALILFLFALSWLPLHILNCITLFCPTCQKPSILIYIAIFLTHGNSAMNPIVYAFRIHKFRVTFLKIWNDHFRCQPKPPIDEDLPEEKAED
OBSERVED_PROPERTY: pKi
Answers are plain numbers, as −log10 of the molar value.

Below are 2 compounds. Give each one its pKi.
1. N=C(N)NC(=O)c1nc(Cl)c(N2CCCCCC2)nc1N
2. N=C(N)NC(=O)c1nc(Cl)c(N)nc1N

1. 5.92
2. 4.96

###

pKi: −log10 of the molar value.
Form: system (D(2) dopamine receptor (Rattus norvegicus, UniProt P61169)), quantity (pKi), values below.

So what's the measured pKi for this one? NC(=NCc1ccccc1)NC(=O)c1nc(Cl)c(N)nc1N [NSC_108107]
5.12

Below are 2 compounds. Give each one its pKi.
1. N=C(N)NC(=O)c1nc(Cl)c(N)nc1N
2. N=C(N)NC(=O)c1nc(Cl)c(N2CCCCCC2)nc1N

["< 5.00", "< 5.00"]

###

Form: system (D(1A) dopamine receptor (Rattus norvegicus)), quantity (Ki), values below.

Below are 3 molecules. Give each one its Ki.
1. NC(=NCc1ccccc1)NC(=O)c1nc(Cl)c(N)nc1N
2. N=C(N)NC(=O)c1nc(Cl)c(N2CCCCCC2)nc1N
3. N=C(N)NC(=O)c1nc(Cl)c(N)nc1N

1. > 10 µM
2. > 10 µM
3. > 10 µM

###

Form: system (Gamma-aminobutyric acid receptor subunit alpha-1 (Rattus norvegicus, UniProt P62813)), quantity (Ki), values below.

So what's the measured Ki for this one? "N=C(N)NC(=O)c1nc(Cl)c(N)nc1N"
> 10 µM

Would you kindly repeat that for "N=C(N)NC(=O)c1nc(Cl)c(N2CCCCCC2)nc1N" ?
> 10 µM

Turning to the following compound.
So what's the measured Ki for this one? NC(=NCc1ccccc1)NC(=O)c1nc(Cl)c(N)nc1N [NSC_108107]
> 10 µM

###

# TARGET: 5-hydroxytryptamine receptor 2C (Sus scrofa, UniProt G7ZKZ7)
# Sequence (G7ZKZ7 whole entry): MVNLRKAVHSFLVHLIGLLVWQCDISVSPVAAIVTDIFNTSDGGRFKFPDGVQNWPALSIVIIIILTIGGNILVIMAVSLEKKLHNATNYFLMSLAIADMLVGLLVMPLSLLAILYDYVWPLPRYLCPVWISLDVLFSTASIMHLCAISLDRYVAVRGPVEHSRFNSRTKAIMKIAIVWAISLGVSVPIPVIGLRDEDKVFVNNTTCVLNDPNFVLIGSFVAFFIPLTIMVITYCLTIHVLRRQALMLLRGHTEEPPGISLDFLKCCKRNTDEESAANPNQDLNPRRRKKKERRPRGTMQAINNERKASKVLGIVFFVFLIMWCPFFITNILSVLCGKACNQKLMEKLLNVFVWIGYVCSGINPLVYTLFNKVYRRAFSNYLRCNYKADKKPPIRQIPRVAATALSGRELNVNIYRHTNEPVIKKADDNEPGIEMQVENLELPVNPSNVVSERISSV
OBSERVED_PROPERTY: Ki

So what's the measured Ki for this one? "N=C(N)NC(=O)c1nc(Cl)c(N)nc1N"
> 10 µM

###

pKi: −log10 of the molar value.
Form: system (Delta-type opioid receptor (Rattus norvegicus)), quantity (pKi), values below.

Below: 2 compounds and their reported pKi.
So what's the measured pKi for this one? "N=C(N)NC(=O)c1nc(Cl)c(N2CCCCCC2)nc1N"
6.00

Would you kindly repeat that for "NC(=NCc1ccccc1)NC(=O)c1nc(Cl)c(N)nc1N" ?
< 5.00

Turning to the following compound.
So what's the measured pKi for this one? "N=C(N)NC(=O)c1nc(Cl)c(N)nc1N"
< 5.00

###

# TARGET: Cysteinyl leukotriene receptor 1 (Cavia porcellus)
# Sequence (Q2NNR5 whole entry): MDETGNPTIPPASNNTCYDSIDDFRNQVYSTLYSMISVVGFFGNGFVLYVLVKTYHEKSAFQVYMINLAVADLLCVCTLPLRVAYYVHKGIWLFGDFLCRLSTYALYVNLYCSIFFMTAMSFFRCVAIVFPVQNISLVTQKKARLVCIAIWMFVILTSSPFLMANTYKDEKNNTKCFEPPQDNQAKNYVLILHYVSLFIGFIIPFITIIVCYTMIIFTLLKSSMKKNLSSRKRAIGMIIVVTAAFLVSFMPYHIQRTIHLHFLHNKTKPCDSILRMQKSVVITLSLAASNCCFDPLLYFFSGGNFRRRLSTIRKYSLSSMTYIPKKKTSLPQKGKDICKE
pKi: −log10 of the molar value.
Could you please report measured pKi for the items listed next?

So what's the measured pKi for this one? "N=C(N)NC(=O)c1nc(Cl)c(N2CCCCCC2)nc1N"
< 5.00

Turning to the following molecule.
So what's the measured pKi for this one? "N=C(N)NC(=O)c1nc(Cl)c(N)nc1N"
< 5.00

###

# TARGET: Sodium-dependent serotonin transporter (Rattus norvegicus, UniProt P31652)
# Sequence (P31652 whole entry): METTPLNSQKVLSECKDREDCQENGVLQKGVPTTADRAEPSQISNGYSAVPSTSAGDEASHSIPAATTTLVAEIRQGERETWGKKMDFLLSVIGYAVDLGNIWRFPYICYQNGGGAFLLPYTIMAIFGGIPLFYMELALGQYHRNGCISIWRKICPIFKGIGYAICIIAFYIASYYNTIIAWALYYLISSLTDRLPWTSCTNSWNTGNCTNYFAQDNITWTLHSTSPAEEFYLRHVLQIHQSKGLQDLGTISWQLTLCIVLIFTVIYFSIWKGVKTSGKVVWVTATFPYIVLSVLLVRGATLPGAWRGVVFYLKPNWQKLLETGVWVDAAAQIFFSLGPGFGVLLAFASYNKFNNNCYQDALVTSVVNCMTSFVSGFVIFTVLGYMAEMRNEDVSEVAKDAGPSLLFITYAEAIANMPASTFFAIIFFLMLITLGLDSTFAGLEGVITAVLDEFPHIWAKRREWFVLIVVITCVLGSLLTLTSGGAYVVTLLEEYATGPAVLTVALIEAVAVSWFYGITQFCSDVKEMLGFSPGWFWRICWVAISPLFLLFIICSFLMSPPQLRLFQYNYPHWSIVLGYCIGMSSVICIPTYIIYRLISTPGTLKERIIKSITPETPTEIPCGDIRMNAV
OBSERVED_PROPERTY: Ki (µM)
Give bare numbers, in µM.

So what's the measured Ki for this one? "N=C(N)NC(=O)c1nc(Cl)c(N2CCCCCC2)nc1N"
7.9

###

# TARGET: Adenosine receptor A1 (Bos taurus)
# Sequence (P28190 whole entry): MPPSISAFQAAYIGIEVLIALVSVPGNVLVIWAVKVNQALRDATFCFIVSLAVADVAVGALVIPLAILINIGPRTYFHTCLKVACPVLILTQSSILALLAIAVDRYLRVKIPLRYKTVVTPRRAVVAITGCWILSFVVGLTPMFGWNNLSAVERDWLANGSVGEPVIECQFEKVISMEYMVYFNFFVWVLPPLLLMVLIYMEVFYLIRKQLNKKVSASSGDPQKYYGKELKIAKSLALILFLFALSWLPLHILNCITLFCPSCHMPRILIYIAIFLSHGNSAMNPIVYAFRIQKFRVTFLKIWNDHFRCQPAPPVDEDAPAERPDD
OBSERVED_PROPERTY: pKi
Give bare numbers, as −log10 of the molar value.

So what's the measured pKi for this one? NC(=NCc1ccccc1)NC(=O)c1nc(Cl)c(N)nc1N [NSC_108107]
6.19

More entries:
So what's the measured pKi for this one? "N=C(N)NC(=O)c1nc(Cl)c(N)nc1N"
5.70
